# assaySystem: pre-pro-human insulin
propertyLabel: Selectivity (%)
Just the number please, in %, no unit attached.

Request: Which measured Selectivity value corresponds to trypsin variant SEQ ID NO: 125 (protein) IVGGYTCAANSIPYQVSLNSGSHDCGGSLINSQWVVSAAHCYKSRIQVRLGEHNIDVLEGNEQFINAAKIITHPNFNGNTLDNDIMLIKLSSPATLNSRVATVSLPRSCAAAGTECLISGWGNTKSSGSSYPSLLQCLKAPVLSDSSCKSSYPGQITGNMICVGFLEGGKDACQGDSGGPVVCNGQLQGIVSSGYGCAQKNKPGVYTKVCNYVNWIQQTIAAN ?
Response: 12.2
